procedure-details: Pharmacokinetic study
Assay type: in vivo
conditions: rat, plasma, iv; SD rats, i.v. 1 mg/kg
readout-type: half-life (h)

>  <line-notation>
CN(C)Cc1cccc(Nc2ncc(Cl)c(-c3csc(C(=O)NN4CCOCC4)c3)n2)c1

>  <quantitative-result>
2.01

$$$$

###

procedure-details: Pharmacokinetic study
Format: in vivo
conditions: rat, plasma, po; SD rats, p.o. 10 mg/kg
readout-type: AUC(0-inf) (ng·h/mL)

>  <line-notation>
CN(C)Cc1cccc(Nc2ncc(Cl)c(-c3csc(C(=O)NN4CCOCC4)c3)n2)c1

>  <quantitative-result>
457

$$$$

###

procedure-details: Pharmacokinetic study
Format: in vivo
conditions: rat, plasma, iv; SD rats, i.v. 1 mg/kg; read-out: CL (mL/(min·kg))

>  <line-notation>
CN(C)Cc1cccc(Nc2ncc(Cl)c(-c3csc(C(=O)NN4CCOCC4)c3)n2)c1

>  <clearance (mL/min/kg)>
117

$$$$
